target: PARP1 WT (UniProt P09874 1-1014)
Sequence (P09874 whole entry): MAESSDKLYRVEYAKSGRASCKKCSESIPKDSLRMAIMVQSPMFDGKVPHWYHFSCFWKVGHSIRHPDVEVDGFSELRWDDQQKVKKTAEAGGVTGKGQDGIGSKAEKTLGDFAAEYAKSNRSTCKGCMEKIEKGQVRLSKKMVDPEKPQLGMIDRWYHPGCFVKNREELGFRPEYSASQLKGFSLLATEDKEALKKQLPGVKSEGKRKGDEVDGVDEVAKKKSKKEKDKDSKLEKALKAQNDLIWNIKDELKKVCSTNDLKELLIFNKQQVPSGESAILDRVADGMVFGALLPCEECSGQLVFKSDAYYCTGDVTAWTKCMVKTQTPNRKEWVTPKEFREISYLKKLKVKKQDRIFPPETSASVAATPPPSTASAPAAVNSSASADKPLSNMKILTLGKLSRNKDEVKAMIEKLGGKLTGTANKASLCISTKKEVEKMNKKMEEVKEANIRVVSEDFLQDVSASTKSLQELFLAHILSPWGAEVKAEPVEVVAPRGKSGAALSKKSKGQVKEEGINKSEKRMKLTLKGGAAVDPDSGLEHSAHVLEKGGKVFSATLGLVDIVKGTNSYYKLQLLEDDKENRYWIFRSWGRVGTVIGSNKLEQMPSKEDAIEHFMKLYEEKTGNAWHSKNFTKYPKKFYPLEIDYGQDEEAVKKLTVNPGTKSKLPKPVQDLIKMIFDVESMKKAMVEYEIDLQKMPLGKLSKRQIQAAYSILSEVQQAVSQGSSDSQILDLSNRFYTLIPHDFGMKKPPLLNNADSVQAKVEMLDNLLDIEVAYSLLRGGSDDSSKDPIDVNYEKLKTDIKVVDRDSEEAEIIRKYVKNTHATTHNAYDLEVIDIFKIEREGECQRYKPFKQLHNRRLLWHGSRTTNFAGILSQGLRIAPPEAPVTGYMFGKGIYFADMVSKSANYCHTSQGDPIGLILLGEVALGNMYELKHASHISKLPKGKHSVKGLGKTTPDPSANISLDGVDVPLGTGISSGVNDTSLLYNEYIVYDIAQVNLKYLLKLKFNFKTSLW
experiment notes: fluorescence polarization
measured endpoint: pKd
The quantity pKd is defined as the negative base-10 logarithm of the molar concentration.

Given the binder 18-bp DNA duplex (dsDNA) DNA 1: GGGTTGCGGCCGCTTGGG DNA 2: CCCAAGCGGCCGCAACCC , what is its reported pKd? 7.21

Origin of values: paper PMC11070930
